Assay: Oral bioavailability in rat at 2 mg/kg
Format: ADME, organism-based
Conditions: in vivo

>  <input_smiles>
COc1cc(OCc2ccccc2)c2cc(-c3cn4nc(OC)sc4n3)oc2c1

>  <unit_info>
%

>  <bioavailability>
27

$$$$
>  <input_smiles>
COc1cc(OCc2cccc(OCc3ccccc3)c2)c2cc(-c3cn4nc(OC)sc4n3)oc2c1

>  <unit_info>
%

>  <bioavailability>
11

$$$$
>  <input_smiles>
COc1cc(OC)c2cc(-c3cn4nc(OC)sc4n3)oc2c1

>  <unit_info>
%

>  <bioavailability>
1

$$$$

###

Test: Oral bioavailability in monkey at 2 mg/kg
Assay type: ADME, organism-based, Macaca mulatta
Settings: rhesus monkey, in vivo

>  <input_smiles>
COc1cc(OCc2cccc(OCc3ccccc3)c2)c2cc(-c3cn4nc(OC)sc4n3)oc2c1

>  <bioavailability (%)>
11

$$$$
